Parameter: mortality at 100 g/ha. Scope: all listed entries.
- System: fall armyworm larvae (Spodoptera frugiperda)
- PROTOCOL_NOTES: Spodoptera frugiperda spray test (maize leaf sections)
- Format: in vivo
- EXPERIMENTAL_CONDITIONS: 168 h
RESULT_TYPE: mortality at 100 g/ha

# COMPOUND, EXPERIMENTAL_SYSTEM, OBSERVED_MEASUREMENT
rows = [
    ("Cc1nc([C@H](C)NC(=O)c2cc(Cl)cc(C(F)F)c2)n(-c2ncc(C#N)s2)n1", "fall armyworm larvae (Spodoptera frugiperda)", "100%"),
    ("C[C@H](NC(=O)c1cc(Cl)cc(Br)c1)c1ncnn1-c1ncc(C#N)s1", "fall armyworm larvae (Spodoptera frugiperda)", "100%"),
    ("Cc1nc([C@H](C)NC(=O)c2cc(S(=O)(=O)C(F)(F)F)cc(S(=O)(=O)C(F)(F)F)c2)n(-c2ncc(C#N)s2)n1", "fall armyworm larvae (Spodoptera frugiperda)", "100%"),
    ("C[C@H](NC(=O)c1cc(OC(F)(F)F)cc(C2(C#N)CC2)c1)c1ncnn1-c1ncc(C#N)s1", "fall armyworm larvae (Spodoptera frugiperda)", "100%"),
    ("Cc1nc([C@H](C)NC(=O)c2cc(C(F)(F)F)cc(S(C)(=O)=O)c2)n(-c2ncc(C#N)s2)n1", "fall armyworm larvae (Spodoptera frugiperda)", "100%"),
    ("CC(NC(=O)c1cc(Cl)cc(S(F)(F)(F)(F)F)c1)c1ncnn1-c1ncc(C#N)s1 (centres unmarked)", "fall armyworm larvae (Spodoptera frugiperda)", "100%"),
    ("C[C@H](NC(=O)c1cc(F)cc(OC(F)F)c1)c1ncnn1-c1ncc(C#N)s1", "fall armyworm larvae (Spodoptera frugiperda)", "100%"),
    ("C[C@H](NC(=O)c1cc(Cl)nc(OC(F)(F)F)c1)c1ncnn1-c1ncc(C#N)s1", "fall armyworm larvae (Spodoptera frugiperda)", "100%"),
]

---

Parameter: mortality at 100 g/ha. Scope: all listed entries.
- Test system: fall armyworm larvae (Spodoptera frugiperda)
- PROTOCOL_NOTES: Spodoptera frugiperda spray test (maize leaf sections)
- Assay type: in vivo
- EXPERIMENTAL_CONDITIONS: 168 h
RESULT_TYPE: mortality at 100 g/ha (%)

# MOLECULE, RESULT_TYPE, OBSERVED_MEASUREMENT
measured = [
    ("C[C@H](NC(=O)c1cc(C(F)F)cc(C(F)F)c1)c1ncnn1-c1ncc(C(=O)N(C)C2CC2)s1 [I-150]", "mortality at 100 g/ha", 100),
    ("CC(NC(=O)c1cc(Cl)cc(OC(F)(F)F)c1)c1ncnn1-c1ncc(C#N)s1 (stereo not shown) [I-28]", "mortality at 100 g/ha", 100),
    ("C[C@H](NC(=O)c1cc(C2CC2)cc(C(C)(F)F)c1)c1ncnn1-c1ncc(C#N)s1 [I-95]", "mortality at 100 g/ha", 100),
    ("C[C@H](NC(=O)c1cc(Cl)cc(C(F)(F)Br)c1)c1ncnn1-c1ncc(C#N)s1 [I-86]", "mortality at 100 g/ha", 100),
]

---

Parameter: pest or weed control at 5 µg/cm2, 500 g/ha. Scope: all listed entries.
- System: adult brown dog ticks (Rhipicephalus sanguineus)
- PROTOCOL_NOTES: Rhipicephalus sanguineus in-vitro contact test with adult brown dog ticks
- Assay type: in vivo
- EXPERIMENTAL_CONDITIONS: 5 μg/cm^2 (=500 g/ha), after 48 hours, read-out: efficacy (ticks dead or moribund)
RESULT_TYPE: pest or weed control at 5 µg/cm2, 500 g/ha (%)

# MOLECULE, OBSERVED_MEASUREMENT
measured = [
    ("Cc1nc([C@H](C)NC(=O)c2cc(Br)cc(OC(F)(F)F)c2)n(-c2ncc(C#N)s2)n1", 100),
    ("Cc1nc([C@H](C)NC(=O)c2cc(C(F)(F)F)cc(C(F)(F)F)c2)n(-c2ncc(C(=O)N(C)CC(F)(F)F)s2)n1", 100),
    ("Cc1nc([C@H](C)NC(=O)c2cc(C(F)(F)F)cc(C(F)(F)F)c2)n(-c2ncc(C(=O)N(C)C3CC3)s2)n1", 100),
    ("Cc1nc([C@H](C)NC(=O)c2cc(C(F)(F)F)cc(C(F)(F)F)c2)n(-c2ncc(C(=O)N(C)C)s2)n1", 100),
    ("Cc1nc([C@H](C)NC(=O)c2cc(OC(F)(F)F)cc(C3CC3)c2)n(-c2ncc(C#N)s2)n1", 100),
    ("CC(NC(=O)c1cc(OC(F)F)cc(OC(F)F)c1)c1ncnn1-c1ncc(C#N)s1 (stereo not shown)", 100),
    ("CNC(=O)c1cnc(-n2nc(C)nc2[C@H](C)NC(=O)c2cc(Cl)cc(C(F)(F)F)c2)s1", 80),
    ("Cc1nc([C@H](C)NC(=O)c2cc(Cl)cc(Br)c2)n(-c2ncc(C#N)s2)n1", 100),
    ("Cc1nc([C@H](C)NC(=O)c2cc(OC(F)(F)F)cc(C3CC3)c2)n(-c2ncc(C(=O)N(C)CC#N)s2)n1", 80),
    ("C[C@H](NC(=O)c1cc(C(F)(F)F)cc(C(F)(F)F)c1)c1ncnn1-c1ncc(C#N)s1", 100),
    ("CC(NC(=O)c1cc(OC(F)(F)F)cc(C2CC2)c1)c1ncnn1-c1ncc(C#N)s1 (stereo not shown)", 100),
    ("Cc1nc([C@H](C)NC(=O)c2cc(C(F)(F)F)cc(C(F)(F)F)c2)n(-c2ncc(C(=O)N(C)C(C)C)s2)n1", 100),
    ("Cc1nc([C@H](C)NC(=O)c2cc(Br)cc(Br)c2)n(-c2ncc(C(=O)N(C)CC#N)s2)n1", 100),
    ("Cc1nc([C@H](C)NC(=O)c2cc(Cl)cc(C(F)(F)C(F)(F)F)c2)n(-c2ncc(C#N)s2)n1", 80),
    ("Cc1nc([C@H](C)NC(=O)c2cc(C(F)(F)F)cc(C(F)(F)F)c2)n(-c2ncc(C(N)=O)s2)n1", 100),
    ("C[C@H](NC(=O)c1cc(I)cc(OC(F)F)c1)c1ncnn1-c1ncc(C#N)s1", 80),
]
